MEASUREMENT_TARGET: TRPV4 (Homo sapiens, UniProt Q9HBA0)
Construct: endogenous in cells
Sequence (Q9HBA0 whole entry): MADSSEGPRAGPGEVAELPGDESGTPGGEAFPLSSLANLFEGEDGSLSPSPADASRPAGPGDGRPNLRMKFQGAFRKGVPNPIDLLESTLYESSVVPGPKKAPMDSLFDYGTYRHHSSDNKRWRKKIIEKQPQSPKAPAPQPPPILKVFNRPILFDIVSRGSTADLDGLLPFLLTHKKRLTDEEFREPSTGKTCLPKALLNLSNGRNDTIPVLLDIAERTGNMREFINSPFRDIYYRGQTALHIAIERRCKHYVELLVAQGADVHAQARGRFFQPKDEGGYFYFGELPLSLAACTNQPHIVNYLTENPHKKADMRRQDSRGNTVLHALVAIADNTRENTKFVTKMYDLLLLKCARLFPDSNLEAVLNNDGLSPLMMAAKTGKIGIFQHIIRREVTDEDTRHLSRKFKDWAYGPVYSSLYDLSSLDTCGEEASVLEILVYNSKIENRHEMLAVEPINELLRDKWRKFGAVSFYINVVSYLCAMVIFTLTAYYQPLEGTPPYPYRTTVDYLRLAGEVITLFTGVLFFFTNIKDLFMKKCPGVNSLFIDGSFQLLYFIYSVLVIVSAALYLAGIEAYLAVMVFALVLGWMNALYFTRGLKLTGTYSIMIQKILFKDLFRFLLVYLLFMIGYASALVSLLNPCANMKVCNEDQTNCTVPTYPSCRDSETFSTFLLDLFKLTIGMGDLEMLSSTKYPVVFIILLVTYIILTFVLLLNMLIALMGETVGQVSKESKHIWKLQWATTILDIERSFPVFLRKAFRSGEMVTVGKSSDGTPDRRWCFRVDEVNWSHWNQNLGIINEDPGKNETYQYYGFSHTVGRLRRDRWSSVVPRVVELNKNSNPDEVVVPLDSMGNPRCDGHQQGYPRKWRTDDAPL
ASSAY_SUMMARY: FLIPR calcium dye assay in MDA-MB-468 breast cancer cells
Type: cell-based
CONDITION: MDA-MB-468 cells, fluo-4 with Allura Red 1 mM; read-out: EC50 (increase in intracellular calcium)
MEASUREMENT_NAME: EC50 (µM)
The reply should contain only the number, in µM.

Ask: Returns the measured EC50 for the input compound. Input: CC(C)C[C@H](NC(=O)c1cc2ccccc2s1)C(=O)N1CCN(C(=O)[C@H](CO)NS(=O)(=O)c2ccc(Cl)cc2Cl)CC1 [GSK1016790A]
Result: 0.064
